Known Ki of a selection of compounds
molecular target: Delta-type opioid receptor (Mus musculus); test: Displacement of [3H]DPDPE from DOR in mouse whole brain membranes without cerebellum; assay type: cell membranes, Membrane
Sequence (P32300 whole entry): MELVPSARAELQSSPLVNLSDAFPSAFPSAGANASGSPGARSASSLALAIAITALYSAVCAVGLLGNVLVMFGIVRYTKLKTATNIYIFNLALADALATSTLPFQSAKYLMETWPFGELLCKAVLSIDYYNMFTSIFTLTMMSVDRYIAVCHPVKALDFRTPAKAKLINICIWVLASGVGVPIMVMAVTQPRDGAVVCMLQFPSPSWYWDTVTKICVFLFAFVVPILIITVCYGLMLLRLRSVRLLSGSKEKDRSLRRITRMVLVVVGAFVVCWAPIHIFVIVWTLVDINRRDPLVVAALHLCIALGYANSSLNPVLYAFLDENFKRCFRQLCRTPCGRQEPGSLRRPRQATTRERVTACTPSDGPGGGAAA
Property Label: Ki (nM)

[[record]]
compound = "CN(C(=O)Cc1ccccc1)[C@@H]1C[C@@]23CCN(CC4CC4)[C@H]4CCC1C[C@]42Cc1ccc(O)cc13 (single isomer, unassigned)"
unit_spec = "nM"
measured_result = 1.19

[[record]]
compound = "CN(C(=O)CCc1ccccc1)[C@@H]1C[C@@]23CCN(CC4CC4)[C@H]4CCC1C[C@]42Cc1ccc(O)cc13 (single isomer, unassigned)"
unit_spec = "nM"
measured_result = 1.15

[[record]]
compound = "CN(C(=O)CCc1ccccc1)[C@H]1C[C@@]23CCN(CC4CC4)[C@H]4CCC1C[C@]42Cc1ccc(O)cc13 (single isomer, unassigned)"
unit_spec = "nM"
measured_result = 32.4

[[record]]
compound = "CN(C(=O)CCc1ccccc1)[C@@H]1C[C@@]23CCN(CC4CC4)[C@H]4C=C[C@@H]1C[C@]42Cc1ccc(O)cc13"
unit_spec = "nM"
measured_result = 3.52

[[record]]
compound = "CN(C(=O)c1ccccc1)[C@H]1C[C@@]23CCN(CC4CC4)[C@H]4C=C[C@@H]1C[C@]42Cc1ccc(O)cc13"
unit_spec = "nM"
measured_result = 6.46

[[record]]
compound = "CN(C(=O)CCc1ccccc1)[C@H]1C[C@@]23CCN(CC4CC4)[C@H]4C=C[C@@H]1C[C@]42Cc1ccc(O)cc13"
unit_spec = "nM"
measured_result = 10.7

